- Tested System: Ephrin type-A receptor 3 (Homo sapiens)
- Sequence (P29320 whole entry): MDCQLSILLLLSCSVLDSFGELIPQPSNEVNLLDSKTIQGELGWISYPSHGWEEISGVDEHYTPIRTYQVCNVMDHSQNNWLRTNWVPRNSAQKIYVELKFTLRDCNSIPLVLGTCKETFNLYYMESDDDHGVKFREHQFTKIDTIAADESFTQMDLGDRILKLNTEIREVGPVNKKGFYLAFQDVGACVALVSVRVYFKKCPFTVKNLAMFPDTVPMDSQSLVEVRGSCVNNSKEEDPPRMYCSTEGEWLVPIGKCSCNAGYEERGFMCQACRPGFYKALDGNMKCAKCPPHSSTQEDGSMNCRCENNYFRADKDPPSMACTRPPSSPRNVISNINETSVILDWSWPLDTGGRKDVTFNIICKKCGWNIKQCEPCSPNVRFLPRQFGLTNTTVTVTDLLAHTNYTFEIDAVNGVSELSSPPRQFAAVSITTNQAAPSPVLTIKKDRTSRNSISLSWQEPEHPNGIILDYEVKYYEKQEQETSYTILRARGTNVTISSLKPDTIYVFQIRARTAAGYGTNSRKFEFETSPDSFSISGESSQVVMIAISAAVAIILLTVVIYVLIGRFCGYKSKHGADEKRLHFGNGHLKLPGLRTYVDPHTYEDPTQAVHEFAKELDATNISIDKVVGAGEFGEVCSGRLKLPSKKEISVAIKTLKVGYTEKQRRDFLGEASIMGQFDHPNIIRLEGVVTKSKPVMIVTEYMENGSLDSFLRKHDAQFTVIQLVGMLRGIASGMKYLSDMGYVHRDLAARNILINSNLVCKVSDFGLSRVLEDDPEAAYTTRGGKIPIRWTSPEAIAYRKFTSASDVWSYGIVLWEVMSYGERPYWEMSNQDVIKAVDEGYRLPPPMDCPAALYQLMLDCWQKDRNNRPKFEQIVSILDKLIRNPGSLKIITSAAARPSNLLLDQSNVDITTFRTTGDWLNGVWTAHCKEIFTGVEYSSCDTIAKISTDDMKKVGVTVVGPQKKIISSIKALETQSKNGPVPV
pKd: −log10 of the molar value.

# Molecule, Tested System, pKd
measured = [
    ("Oc1c2ccccc2c2c3c(cccc13)N=N2 [SP-600125]", "Ephrin type-A receptor 3 (Homo sapiens)", 5.40),
]

====

- Tested System: Proto-oncogene tyrosine-protein kinase Src (Homo sapiens)
- Sequence (P12931 2-536 limits assumed): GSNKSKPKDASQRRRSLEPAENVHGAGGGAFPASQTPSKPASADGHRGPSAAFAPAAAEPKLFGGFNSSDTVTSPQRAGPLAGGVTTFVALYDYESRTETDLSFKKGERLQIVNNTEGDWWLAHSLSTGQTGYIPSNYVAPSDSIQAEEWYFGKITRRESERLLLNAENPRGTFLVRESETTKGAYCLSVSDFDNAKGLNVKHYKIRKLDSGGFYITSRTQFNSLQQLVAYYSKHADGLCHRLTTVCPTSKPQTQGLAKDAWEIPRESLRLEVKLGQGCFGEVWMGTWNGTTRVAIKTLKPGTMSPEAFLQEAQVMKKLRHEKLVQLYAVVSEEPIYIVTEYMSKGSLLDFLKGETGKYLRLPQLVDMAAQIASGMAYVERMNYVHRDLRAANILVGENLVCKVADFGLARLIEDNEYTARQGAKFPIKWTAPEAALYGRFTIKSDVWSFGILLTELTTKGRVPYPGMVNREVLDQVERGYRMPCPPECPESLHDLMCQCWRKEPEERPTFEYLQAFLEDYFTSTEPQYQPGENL
Observed Property: Kd

# Compound, Result
data = [
    ("Oc1c2ccccc2c2c3c(cccc13)N=N2", "Not Active"),
    ("CC[C@H](CO)Nc1nc(NCc2ccccc2)c2ncn(C(C)C)c2n1", "Not Active"),
    ("C[S+]([O-])c1ccc(-c2nc(-c3ccc(F)cc3)c(-c3ccncc3)[nH]2)cc1 (stereo not given)", "Not Active"),
    ("Oc1ccc(-c2nc(-c3ccc(F)cc3)c(-c3ccncc3)[nH]2)cc1", "Not Active"),
    ("COc1cc2c(N3CCN(C(=O)Nc4ccc(OC(C)C)cc4)CC3)ncnc2cc1OCCCN1CCCCC1", "Not Active"),
]

====

Here we list compounds with their recorded Kd when tested on Ephrin type-A receptor 4 (Homo sapiens, UniProt P54764).
Sequence (P54764 whole entry): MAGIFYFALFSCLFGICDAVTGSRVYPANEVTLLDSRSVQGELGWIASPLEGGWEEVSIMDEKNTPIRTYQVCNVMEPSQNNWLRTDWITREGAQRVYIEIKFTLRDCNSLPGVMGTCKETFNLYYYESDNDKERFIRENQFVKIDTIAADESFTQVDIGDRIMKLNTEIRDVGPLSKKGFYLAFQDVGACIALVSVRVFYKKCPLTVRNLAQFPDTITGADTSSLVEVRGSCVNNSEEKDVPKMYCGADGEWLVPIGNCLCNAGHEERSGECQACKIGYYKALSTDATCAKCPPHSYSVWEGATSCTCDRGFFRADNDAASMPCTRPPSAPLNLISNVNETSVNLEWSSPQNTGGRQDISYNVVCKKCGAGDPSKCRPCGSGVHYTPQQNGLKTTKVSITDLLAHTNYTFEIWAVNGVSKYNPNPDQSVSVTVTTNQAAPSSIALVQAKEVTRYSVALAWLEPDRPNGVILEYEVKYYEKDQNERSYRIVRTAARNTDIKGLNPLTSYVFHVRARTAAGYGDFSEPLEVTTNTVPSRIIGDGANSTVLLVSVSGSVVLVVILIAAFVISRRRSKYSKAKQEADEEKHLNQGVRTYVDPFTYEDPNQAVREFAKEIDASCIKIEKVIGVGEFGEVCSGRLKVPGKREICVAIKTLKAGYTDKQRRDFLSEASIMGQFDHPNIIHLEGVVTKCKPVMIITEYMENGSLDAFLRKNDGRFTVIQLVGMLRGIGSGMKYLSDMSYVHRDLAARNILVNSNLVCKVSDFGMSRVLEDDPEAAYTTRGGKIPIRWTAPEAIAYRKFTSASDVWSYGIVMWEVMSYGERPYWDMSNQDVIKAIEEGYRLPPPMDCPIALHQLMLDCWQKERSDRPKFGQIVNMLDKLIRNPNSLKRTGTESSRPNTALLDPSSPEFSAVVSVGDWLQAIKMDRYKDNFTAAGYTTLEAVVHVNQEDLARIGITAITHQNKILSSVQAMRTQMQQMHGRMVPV
Observed Property: Kd

# Compound, Result
rows = [
    ("Oc1ccc(-c2nc(-c3ccc(F)cc3)c(-c3ccncc3)[nH]2)cc1", "Not Active"),
    ("Cc1ccc(NC(=O)c2ccc(CN3CCN(C)CC3)cc2)cc1Nc1nccc(-c2cccnc2)n1", "Not Active"),
    ("C[S+]([O-])c1ccc(-c2nc(-c3ccc(F)cc3)c(-c3ccncc3)[nH]2)cc1 (centres undefined)", "Not Active"),
    ("COc1cc2c(N3CCN(C(=O)Nc4ccc(OC(C)C)cc4)CC3)ncnc2cc1OCCCN1CCCCC1", "Not Active"),
]

====

Notes on Kd obtained with Tyrosine-protein kinase JAK2 (Homo sapiens).
Sequence (O60674 whole entry): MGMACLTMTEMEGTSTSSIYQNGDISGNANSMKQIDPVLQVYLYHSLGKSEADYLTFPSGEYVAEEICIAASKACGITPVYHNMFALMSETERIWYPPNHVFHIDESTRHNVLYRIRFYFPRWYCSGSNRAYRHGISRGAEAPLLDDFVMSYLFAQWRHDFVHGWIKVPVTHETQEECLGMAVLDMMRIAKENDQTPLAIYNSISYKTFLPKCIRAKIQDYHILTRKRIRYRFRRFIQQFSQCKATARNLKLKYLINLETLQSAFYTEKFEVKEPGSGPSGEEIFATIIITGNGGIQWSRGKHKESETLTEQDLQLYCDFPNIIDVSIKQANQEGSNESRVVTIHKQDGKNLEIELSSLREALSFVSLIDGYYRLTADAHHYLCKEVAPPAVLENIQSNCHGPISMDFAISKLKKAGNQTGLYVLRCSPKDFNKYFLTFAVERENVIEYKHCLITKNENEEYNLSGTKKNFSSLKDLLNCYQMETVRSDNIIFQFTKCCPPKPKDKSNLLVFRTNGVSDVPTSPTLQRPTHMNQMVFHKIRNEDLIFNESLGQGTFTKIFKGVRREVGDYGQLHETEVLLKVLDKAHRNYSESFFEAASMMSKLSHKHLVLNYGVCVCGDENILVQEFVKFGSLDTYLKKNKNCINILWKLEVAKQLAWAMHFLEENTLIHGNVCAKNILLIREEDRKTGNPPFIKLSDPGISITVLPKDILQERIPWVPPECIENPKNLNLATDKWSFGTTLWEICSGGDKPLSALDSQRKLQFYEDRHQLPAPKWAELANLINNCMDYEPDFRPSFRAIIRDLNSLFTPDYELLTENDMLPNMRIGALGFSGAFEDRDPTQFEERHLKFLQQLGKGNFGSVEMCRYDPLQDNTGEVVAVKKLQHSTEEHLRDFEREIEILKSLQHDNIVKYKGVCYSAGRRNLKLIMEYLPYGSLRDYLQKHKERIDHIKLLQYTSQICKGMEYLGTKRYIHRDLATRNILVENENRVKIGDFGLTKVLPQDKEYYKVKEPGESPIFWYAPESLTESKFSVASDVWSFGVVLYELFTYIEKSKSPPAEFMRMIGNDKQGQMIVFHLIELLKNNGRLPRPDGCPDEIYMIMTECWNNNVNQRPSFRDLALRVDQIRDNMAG

# Compound, Tested System, Kd
data = [
    ("O=c1ncn2nc(Sc3ccc(F)cc3F)ccc2c1-c1c(Cl)cccc1Cl [NEFLAMAPIMOD]", "Tyrosine-protein kinase JAK2 (Homo sapiens)", "Not Active"),
    ("Cc1ccc(NC(=O)c2ccc(CN3CCN(C)CC3)cc2)cc1Nc1nccc(-c2cccnc2)n1 [IMATINIB]", "Tyrosine-protein kinase JAK2 (Homo sapiens)", "Not Active"),
    ("COc1cc2c(N3CCN(C(=O)Nc4ccc(OC(C)C)cc4)CC3)ncnc2cc1OCCCN1CCCCC1 [TANDUTINIB]", "Tyrosine-protein kinase JAK2 (Homo sapiens)", "Not Active"),
]

====

pKd: −log10 of the molar value.
pKd, Dual specificity protein kinase CLK2 (Homo sapiens), per-entry values.

# Compound, Tested System, pKd
records = [
    ("CCOc1cc2ncc(C#N)c(Nc3ccc(F)c(Cl)c3)c2cc1NC(=O)/C=C/CN(C)C [PELITINIB]", "Dual specificity protein kinase CLK2 (Homo sapiens)", 6.15),
    ("Oc1c2ccccc2c2c3c(cccc13)N=N2 [SP-600125]", "Dual specificity protein kinase CLK2 (Homo sapiens)", 6.52),
]

====

- Tested System: Phosphorylase b kinase gamma catalytic chain, skeletal muscle/heart isoform (Homo sapiens, UniProt Q16816)
- Sequence (Q16816 whole entry, canonical isoform): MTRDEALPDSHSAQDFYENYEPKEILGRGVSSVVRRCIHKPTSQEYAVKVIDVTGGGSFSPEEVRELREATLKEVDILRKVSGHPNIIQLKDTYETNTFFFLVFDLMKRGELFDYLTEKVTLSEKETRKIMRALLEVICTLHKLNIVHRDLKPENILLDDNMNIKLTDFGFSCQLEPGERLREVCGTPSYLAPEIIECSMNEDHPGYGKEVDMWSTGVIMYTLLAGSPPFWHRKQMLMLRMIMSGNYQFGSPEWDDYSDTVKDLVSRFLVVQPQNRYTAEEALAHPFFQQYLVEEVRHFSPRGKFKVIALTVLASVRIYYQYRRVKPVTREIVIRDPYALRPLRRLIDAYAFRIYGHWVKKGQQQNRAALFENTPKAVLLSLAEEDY
pKd: −log10 of the molar value.

# Smiles, pKd
records = [
    ("CCOc1cc2ncc(C#N)c(Nc3ccc(F)c(Cl)c3)c2cc1NC(=O)/C=C/CN(C)C", 5.82),
]
